# Subject Of Test: E. coli topoisomerase I (Escherichia coli)
# Sequence (P06612 whole entry): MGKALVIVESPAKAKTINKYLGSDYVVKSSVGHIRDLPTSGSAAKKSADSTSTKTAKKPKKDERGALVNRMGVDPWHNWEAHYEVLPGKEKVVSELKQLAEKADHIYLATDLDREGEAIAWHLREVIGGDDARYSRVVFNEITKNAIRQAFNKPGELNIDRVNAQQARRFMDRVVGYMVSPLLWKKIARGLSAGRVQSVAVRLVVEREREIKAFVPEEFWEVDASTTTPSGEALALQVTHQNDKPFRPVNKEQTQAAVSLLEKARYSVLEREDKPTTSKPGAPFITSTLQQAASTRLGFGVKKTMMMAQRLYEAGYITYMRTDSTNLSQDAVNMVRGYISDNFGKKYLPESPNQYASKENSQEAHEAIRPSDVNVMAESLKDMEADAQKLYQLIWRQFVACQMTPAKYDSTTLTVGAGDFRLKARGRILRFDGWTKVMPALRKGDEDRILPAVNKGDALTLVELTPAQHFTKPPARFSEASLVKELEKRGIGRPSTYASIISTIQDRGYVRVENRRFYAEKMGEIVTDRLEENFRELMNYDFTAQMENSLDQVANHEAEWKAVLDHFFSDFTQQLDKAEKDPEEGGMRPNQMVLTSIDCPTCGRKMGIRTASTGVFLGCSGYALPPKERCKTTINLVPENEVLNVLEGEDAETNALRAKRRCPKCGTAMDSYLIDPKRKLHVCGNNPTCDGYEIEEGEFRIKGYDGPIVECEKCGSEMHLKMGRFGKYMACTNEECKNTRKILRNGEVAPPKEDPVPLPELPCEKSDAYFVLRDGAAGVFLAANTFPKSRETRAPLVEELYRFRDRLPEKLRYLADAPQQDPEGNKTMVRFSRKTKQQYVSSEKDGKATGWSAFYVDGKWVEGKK
# Procedure Details: Bacterial topoisomerase I relaxation activity inhibition assay (EcTopI)
# Format: biochemical
Measure Name: IC50 (µM)
Numbers only, in µM.

- Molecule: "CCCC[C@@H](CN[C@H](CN)CCN)NCc1cccc2ccccc12 [Compound 2471-24]"
  Subject Of Test: "E. coli topoisomerase I (Escherichia coli)"
  Result Units: "µM"
  Val: 10
- Molecule: "CCCC[C@@H](CN[C@H](CN)CCCCNC)NCc1cccc2ccccc12 [Compound 2471-12]"
  Subject Of Test: "E. coli topoisomerase I (Escherichia coli)"
  Result Units: "µM"
  Val: 7.5

[in] For the molecule CCCC[C@@H](CN[C@@H](CN)CCCCNC)NCc1cccc2ccccc12 [Compound 2471-36] , what IC50 is on record?
[out] 20

====

# Subject Of Test: Human topoisomerase I (Homo sapiens, UniProt P11387)
# Construct: purchased TopoGen
# Sequence (P11387 1-765): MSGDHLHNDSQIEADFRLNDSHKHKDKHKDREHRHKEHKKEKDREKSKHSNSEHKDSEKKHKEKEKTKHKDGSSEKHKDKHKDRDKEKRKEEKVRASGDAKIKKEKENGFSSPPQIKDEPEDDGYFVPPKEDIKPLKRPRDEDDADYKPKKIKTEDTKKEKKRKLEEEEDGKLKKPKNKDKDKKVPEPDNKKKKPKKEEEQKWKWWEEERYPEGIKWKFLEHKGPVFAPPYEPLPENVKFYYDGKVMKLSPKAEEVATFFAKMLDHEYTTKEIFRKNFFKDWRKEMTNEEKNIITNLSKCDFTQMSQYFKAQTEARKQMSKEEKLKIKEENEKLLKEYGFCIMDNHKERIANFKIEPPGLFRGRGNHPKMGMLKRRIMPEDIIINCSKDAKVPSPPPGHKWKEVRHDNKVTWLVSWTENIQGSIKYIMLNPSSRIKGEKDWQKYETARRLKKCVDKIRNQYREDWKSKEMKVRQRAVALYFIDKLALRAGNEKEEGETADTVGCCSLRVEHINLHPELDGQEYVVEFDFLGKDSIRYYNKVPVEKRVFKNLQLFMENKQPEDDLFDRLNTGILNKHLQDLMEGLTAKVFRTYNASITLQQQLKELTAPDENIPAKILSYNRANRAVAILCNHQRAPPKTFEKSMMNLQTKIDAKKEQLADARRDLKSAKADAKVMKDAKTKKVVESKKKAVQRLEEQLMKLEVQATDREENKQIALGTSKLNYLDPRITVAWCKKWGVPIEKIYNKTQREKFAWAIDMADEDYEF
# Procedure Details: Human topoisomerase I relaxation inhibition assay
# Type: biochemical
# Method: Human topoisomerase I (obtained from TopoGen) relaxation assays were carried out with 0.5 U of enzyme in reaction buffer supplied by the manufacturer. […] Following incubation at 37° C. for 30 minutes, the reactions were terminated with a buffer containing 5% SDS, 0.25% bromophenol blue, and 25% glycerol, and analyzed by agarose gel electrophoresis.
pIC50: −log10 of the molar value.
Measure Name: pIC50

# annotated cases, reported pIC50 shown
- Molecule: "CCCC[C@@H](CN[C@@H](CN)CCCCNC)NCc1cccc2ccccc12 [Compound 2471-36]"
  pIC50: "< 3.80"
- Molecule: "CNCCC[C@@H](CN[C@@H](CN)Cc1ccc2ccccc2c1)NCCc1cccc2ccccc12 [Compound 2580-33]"
  pIC50: "< 4.07"
- Molecule: "CCCC[C@H](CN[C@@H](CN)CCCNC)NCCc1cccc2ccccc12 [Compound 2580-18]"
  pIC50: "< 4.00"
- Molecule: "CNCCC[C@H](CN)NC[C@@H](CCCNC(=N)N)NCCc1cccc2ccccc12 [Compound 2580-15]"
  pIC50: "< 4.05"
- Molecule: "CCC[C@H](CN)NC[C@@H](CCCNC(=N)N)NCCc1cccc2ccccc12 [Compound 2580-3]"
  pIC50: "< 4.10"

Hi team, please reply with pIC50 for each item in this list.
1. CCCC[C@@H](CN[C@H](CN)CCN)NCc1cccc2ccccc12 [Compound 2471-24]
2. CNCCC[C@H](CN)NC[C@@H](Cc1ccc2ccccc2c1)NCCc1cccc2ccccc12 [Compound 2580-24]

[out]
1: < 3.80; 2: < 4.07
